SYSTEM_TESTED: PI3K (p110γ) (Homo sapiens, UniProt P48736)
Sequence (P48736 whole entry): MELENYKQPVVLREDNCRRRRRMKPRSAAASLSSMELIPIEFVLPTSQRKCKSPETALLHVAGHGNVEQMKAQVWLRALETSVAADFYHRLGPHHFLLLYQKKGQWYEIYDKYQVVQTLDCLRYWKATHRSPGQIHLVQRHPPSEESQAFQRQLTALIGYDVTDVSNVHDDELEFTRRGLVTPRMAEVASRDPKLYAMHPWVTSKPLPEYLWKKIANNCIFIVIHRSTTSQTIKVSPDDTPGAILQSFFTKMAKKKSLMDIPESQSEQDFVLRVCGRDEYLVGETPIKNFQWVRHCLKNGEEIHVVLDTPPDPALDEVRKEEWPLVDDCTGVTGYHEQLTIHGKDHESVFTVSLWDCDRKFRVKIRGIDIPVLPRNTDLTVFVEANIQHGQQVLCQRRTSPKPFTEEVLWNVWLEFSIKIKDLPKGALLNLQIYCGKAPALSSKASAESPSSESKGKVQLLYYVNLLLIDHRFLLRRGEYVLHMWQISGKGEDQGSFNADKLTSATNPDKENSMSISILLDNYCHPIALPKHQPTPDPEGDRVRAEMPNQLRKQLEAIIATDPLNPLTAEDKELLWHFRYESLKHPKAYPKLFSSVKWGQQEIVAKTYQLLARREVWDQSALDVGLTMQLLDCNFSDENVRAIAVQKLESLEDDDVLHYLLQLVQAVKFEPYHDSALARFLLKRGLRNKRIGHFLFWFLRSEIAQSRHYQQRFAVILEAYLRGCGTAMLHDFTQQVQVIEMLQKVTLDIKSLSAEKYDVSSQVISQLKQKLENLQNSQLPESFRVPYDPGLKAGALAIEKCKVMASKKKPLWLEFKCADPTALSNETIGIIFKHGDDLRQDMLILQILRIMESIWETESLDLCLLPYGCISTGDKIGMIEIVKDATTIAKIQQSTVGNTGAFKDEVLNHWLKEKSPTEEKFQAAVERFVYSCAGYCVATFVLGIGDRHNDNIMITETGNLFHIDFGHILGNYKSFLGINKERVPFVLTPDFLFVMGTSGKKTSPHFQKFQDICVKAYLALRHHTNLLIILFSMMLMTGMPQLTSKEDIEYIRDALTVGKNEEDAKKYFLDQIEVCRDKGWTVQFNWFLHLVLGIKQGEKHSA
PROTOCOL_NOTES: PI3Kγ ADP-Glo kinase assay
Format: biochemical
STUDY_CONDITIONS: read-out: PI3Kγ Enzyme activity IC50
Entries and their measured pIC50 follow.
pIC50 here: minus log base 10 of the concentration, concentration in moles per litre.

Some entries whose results are on file:
MOLECULE | SYSTEM_TESTED | pIC50
Cc1nc(C(C)c2cc(Cl)c(F)c(-c3ccc(C#N)nc3)c2OC(C)C)n2ccnc(N)c12 (stereo not shown) [Compound 59] | PI3K (p110γ) (Homo sapiens, UniProt P48736) | 5.20
COc1cc(C(C)n2cc(Br)c3c(N)ncnc32)n(-c2ccccc2)c(=O)c1C#N (stereo not shown) | PI3K (p110γ) (Homo sapiens, UniProt P48736) | 5.72
CCCOc1c(C(C)c2nc(Cl)c3c(N)nccn23)cc(Cl)c(F)c1-c1ccc(C(F)(F)F)nc1 (stereo not shown) | PI3K (p110γ) (Homo sapiens, UniProt P48736) | 5.80
CC(C)Oc1c([C@H](C)c2nc(Cl)c3c(N)nccn23)cc(Cl)c(F)c1-c1ccc(C(=O)O)nc1 [Compound 18A] | PI3K (p110γ) (Homo sapiens, UniProt P48736) | 6.80
CCOc1c(C(C)c2nc(Cl)c3c(N)nccn23)cc(Cl)c(C)c1N1CCOCC1 (single isomer, unassigned) [Compound 51A] | PI3K (p110γ) (Homo sapiens, UniProt P48736) | 5.92
CC(C)Oc1c(C(C)c2nc(Cl)c3c(N)nccn23)cc(Cl)c(F)c1-c1ccc(C(=O)O)nc1 (stereo not shown) | PI3K (p110γ) (Homo sapiens, UniProt P48736) | 6.47

Request: For PI3K (p110γ) (Homo sapiens, UniProt P48736), give pIC50 of the listed molecule: CCOc1c(C(C)c2nc(Cl)c3c(N)nccn23)cc(Cl)c(F)c1C1CCOCC1 (single isomer, unassigned) [Compound 49A]
Response: 6.36

----------
PROTOCOL_NOTES: Brain penetration in male C57BL/6 mice after oral administration
Type: in vivo
STUDY_CONDITIONS: male, C57BL/6, brain and plasma; mouse, PO 10 mg·kg^−1; read-out: BBB (Brain/Plasma Cone. Ratio)
Entries and their measured Kp follow.
Response field accepts a number only; no unit should be typed.

COMPOUND | Kp
CC(C)Oc1c([C@H](C)c2nc(Cl)c3c(N)nccn23)cc(Cl)c(F)c1-c1ccc(C(F)(F)F)nc1 [Compound 40A] | 0.29

Consider now this further compound.
Request: Given CC(C)Oc1c([C@H](C)c2nc(Cl)c3c(N)nccn23)cc(Cl)c(F)c1-c1ccc(C(=O)N(C)C)nc1 [Compound 16A] , respond with its Kp.
Response: 0.05

----------
SYSTEM_TESTED: recombinant PI3K (p110α/p85α) (Homo sapiens, UniProt P42336)
Sequence (P42336 whole entry): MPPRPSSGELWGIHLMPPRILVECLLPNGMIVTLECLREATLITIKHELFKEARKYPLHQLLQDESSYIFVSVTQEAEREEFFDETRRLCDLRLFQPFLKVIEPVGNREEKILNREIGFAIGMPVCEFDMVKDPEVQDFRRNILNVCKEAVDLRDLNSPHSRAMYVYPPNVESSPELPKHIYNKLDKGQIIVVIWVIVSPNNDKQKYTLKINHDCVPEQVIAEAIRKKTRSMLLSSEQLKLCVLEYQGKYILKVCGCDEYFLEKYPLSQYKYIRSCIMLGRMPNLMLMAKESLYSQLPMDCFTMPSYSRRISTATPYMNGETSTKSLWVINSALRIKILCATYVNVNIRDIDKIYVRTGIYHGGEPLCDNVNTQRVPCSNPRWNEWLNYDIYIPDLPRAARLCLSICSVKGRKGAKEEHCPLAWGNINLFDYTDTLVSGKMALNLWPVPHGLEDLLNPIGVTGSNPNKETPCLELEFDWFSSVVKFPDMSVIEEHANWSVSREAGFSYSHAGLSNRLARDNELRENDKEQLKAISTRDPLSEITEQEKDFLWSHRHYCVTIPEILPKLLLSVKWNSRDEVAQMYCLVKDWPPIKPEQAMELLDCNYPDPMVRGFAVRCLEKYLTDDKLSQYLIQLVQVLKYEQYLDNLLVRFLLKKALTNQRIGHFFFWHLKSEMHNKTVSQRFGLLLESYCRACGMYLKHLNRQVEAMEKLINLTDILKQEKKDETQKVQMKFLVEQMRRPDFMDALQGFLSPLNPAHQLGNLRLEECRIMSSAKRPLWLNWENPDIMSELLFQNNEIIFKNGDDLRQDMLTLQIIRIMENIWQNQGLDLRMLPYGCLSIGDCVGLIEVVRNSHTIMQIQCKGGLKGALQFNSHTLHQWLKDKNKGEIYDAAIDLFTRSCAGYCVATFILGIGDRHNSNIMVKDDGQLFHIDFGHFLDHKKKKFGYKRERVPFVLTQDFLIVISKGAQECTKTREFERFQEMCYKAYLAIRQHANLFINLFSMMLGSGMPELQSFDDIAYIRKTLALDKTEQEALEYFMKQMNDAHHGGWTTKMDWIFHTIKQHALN
Sequence (P27986 whole entry partner): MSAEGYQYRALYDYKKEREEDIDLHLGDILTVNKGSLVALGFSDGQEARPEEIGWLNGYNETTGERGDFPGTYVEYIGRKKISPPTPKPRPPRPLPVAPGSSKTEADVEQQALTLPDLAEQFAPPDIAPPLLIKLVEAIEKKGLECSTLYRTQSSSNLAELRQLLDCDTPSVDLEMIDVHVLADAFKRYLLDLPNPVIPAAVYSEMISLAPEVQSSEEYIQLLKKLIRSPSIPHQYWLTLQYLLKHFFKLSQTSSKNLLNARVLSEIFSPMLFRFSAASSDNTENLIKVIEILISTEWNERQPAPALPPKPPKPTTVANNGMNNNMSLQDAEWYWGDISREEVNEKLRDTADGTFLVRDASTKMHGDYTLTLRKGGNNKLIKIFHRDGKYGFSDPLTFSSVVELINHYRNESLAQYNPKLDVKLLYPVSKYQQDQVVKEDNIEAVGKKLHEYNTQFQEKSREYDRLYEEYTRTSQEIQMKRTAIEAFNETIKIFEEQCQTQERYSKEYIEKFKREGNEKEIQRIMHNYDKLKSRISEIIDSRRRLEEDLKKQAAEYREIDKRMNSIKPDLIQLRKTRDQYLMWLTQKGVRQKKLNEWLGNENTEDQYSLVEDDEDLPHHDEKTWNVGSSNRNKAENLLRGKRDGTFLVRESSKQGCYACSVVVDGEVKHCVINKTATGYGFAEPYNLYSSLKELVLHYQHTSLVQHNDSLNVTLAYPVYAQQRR
PROTOCOL_NOTES: PI3Kα ADP-Glo kinase assay
Format: biochemical
STUDY_CONDITIONS: read-out: PI3Kα max inhibition (%) at 0.5 μM
Entries and their measured inhibition at 0.5 µM follow.
The response must be a number in % with no trailing unit.

COMPOUND | UNIT_NAME | inhibition at 0.5 µM
COc1c(C(C)c2nc(C)c3c(N)nccn23)cc(Cl)c(C)c1-c1cccnc1 (centres unmarked) [Compound 52] | % | 6
COc1c(C(C)c2nc(Cl)c3c(N)nccn23)cc(Cl)c(C)c1-c1cccnc1 (centres unmarked) [Compound 6] | % | 34
COc1c(C(C)c2nc(Br)c3c(N)ncc(Cl)n23)cc(Cl)c(C)c1-c1cccnc1 (centres unmarked) [Compound 5] | % | 19
COc1c(C(C)c2nc(Br)c3c(N)nccn23)cc(Cl)c(C)c1-c1ccc(N2CCOCC2)nc1 (centres unmarked) [Compound 23] | % | 16

Consider now this further compound.
Request: Given COc1c(C(C)c2nc(-c3cccc(O)c3)c3c(N)nccn23)cc(Cl)c(C)c1-c1cccnc1 (centres unmarked) [Compound 4] , respond with its inhibition at 0.5 µM.
Response: 20
